# System: K-562 leukemia
# TEST_METHOD_NOTES: NCI-60 one-dose screen, 48 h (100 = growth as untreated, 0 = no growth, -100 = all killed)
# TEST_SETTINGS: 10 µM unless noted
The panel holds about 83,000 compounds, 20% with a hit somewhere; the sample as a whole holds those more often.

{"COMPOUND": "COc1cc(/C=N/n2cnc3oc(-c4ccccc4)cc3c2=N)cc(CN2CCCC2)c1O", "growth (%)": 0.0184}
{"COMPOUND": "COc1cc(/C=N/n2cnc3oc(-c4ccccc4)cc3c2=N)cc(CN2CCCCC2)c1O", "growth (%)": 3.54}
{"COMPOUND": "Oc1ccccc1-c1nnc(SCc2ccc(O)c3ncccc23)o1", "growth (%)": 19.8}
{"COMPOUND": "CC(=O)C1=NN(c2ccc(Cl)cc2)C(=O)CN1C", "growth (%)": 114}
{"COMPOUND": "COc1cc(C(=O)C[n+]2ccc3ccccc3c2)cc(OC)c1OC", "growth (%)": 91.7}
{"COMPOUND": "O=C(NNc1nc2cc(F)cc(F)c2n2cccc12)c1ncccn1", "growth (%)": 17.8}
{"COMPOUND": "CCN1C(=O)N(CC)C2SC(N/N=C/c3cccs3)=NC21 (stereo not given)", "growth (%)": 11.5}
{"COMPOUND": "O=C1/C(=C/c2ccccc2[N+](=O)[O-])Oc2ccc(O)cc21", "growth (%)": 4.21}
{"COMPOUND": "COc1ccc2c(c1)c(-c1nnc(N)nc1-c1cn(C)c3ccccc13)cn2C", "growth (%)": 83.5}
{"COMPOUND": "COc1ccc2c(ccn2C(=O)N2c3ccccc3Sc3ccccc32)c1", "growth (%)": 18.7}
{"COMPOUND": "CS(=O)(=O)c1ccc2c(c1)c1c(n2Cc2ccc(Cl)cc2)CCCC1", "growth (%)": 32.6}
{"COMPOUND": "COc1cc(/C=C/C(=O)c2ccc(NC(=O)CSc3nnc(-c4ccc5nc(-c6ccccc6)[nH]c5c4)o3)cc2)cc(OC)c1OC", "growth (%)": 58.3}
{"COMPOUND": "COc1ccc(NC(=O)Cn2cc(CN3C(=O)c4ccc([N+](=O)[O-])cc4C3=O)nn2)cc1", "growth (%)": 98.1}
{"COMPOUND": "CCNC(=O)Oc1ccc(/C(=C(/C)c2ccccc2)c2ccc(OCCN3CCCC3)cc2)cc1", "growth (%)": 11.3}
{"COMPOUND": "COc1ccccc1/C=C/C=N/NC1=NC2C(S1)N(C)C(=O)N2c1ccccc1 (stereo not given)", "growth (%)": 14.3}
{"COMPOUND": "Cc1nn(-c2ccccc2)c2nc(CCl)[nH]c(=O)c12", "growth (%)": 19.2}
{"COMPOUND": "C=C(C)[C@@H]1CC[C@]2(C(=O)NCCCN(CCC#N)CCC#N)CC[C@]3(C)[C@H](CC[C@@H]4[C@@]5(C)CCC(=O)C(C)(C)[C@@H]5CC[C@]43C)[C@@H]12", "growth (%)": 88.4}
{"COMPOUND": "O=C(/C=C1\\C=CN(CCCCCCF)c2ccccc21)n1ccc2ccccc21", "growth (%)": 91.2}
{"COMPOUND": "COc1ccc(N2CCN(C(=O)CSc3ccc(-c4nc5cc(C)c(C)cc5[nH]4)cn3)CC2)cc1", "growth (%)": 35.3}
{"COMPOUND": "O=C(Nc1cc(Cl)cc(Cl)c1)Nc1nc2ccc([N+](=O)[O-])cc2s1", "growth (%)": 3.25}

// data source = PubChem BioAssay (NCI)
